Origin of measurements: paper PMC3336205

target system: T1, recombinant PfMSP1_(19)-GST (Plasmodium falciparum, strain not …, UniProt P04933)
T1 construct: merozoite surface protein 1 (MSP1), Plasmodium falciparum, C-terminal 19-kDa region (MSP1_19); also called C-terminal 19-kDa region of Plasmodium falciparum merozoite surface protein 1; source: recombinant, purified (Burghaus and Holder, 1994)
experimental protocol: SPR; BIAcore X; PfMSP1_19-GST (50 μg/ml) amine-coupled to a CM5 chip; purified IgGs injected at 2, 1, 0.5, 0.25 and 0.125 μM, 50 μL at 10 μL/min; control Ag in flow cell 2
run conditions: both partners purified
Provide the recorded Kd for the entries that follow.
Answers are plain numbers, in nM.

binder	assay readout	assay value
human IgG1-C1 (JS1), parental human IgG1 antibody (antibody, V domains shown, VH of C1 (anti-PfMSP1_19); human IgG1 heavy-chain constant region; VL of C1; light-chain constant region of pVKExpress C1; IgG1; also called hIgG1-C1; (h)IgG1-C1) VH: EVQLVQSGPEVKKPGASVKVSCKTSGYSFTSYDINWVRQAPGQGLEWMGRISPYNGKTDYTQTLRGRVTMSTDTSTTTVYLELRSLKSDDTAVYYCAREGVWFAELLSWGEGTLVTVSS VL: DIVMTQTPGTLSLSPGERATLSCRASQSVSGNYLAWYQQKPGQAPRLLIHGSSDRAAGTPDRFSGRGSGTDFTLTISRLEPEDFAVYYCQQYCSSPFTFGPGTKVEIK	Kd	23
mouse IgG2a-C1 (PfMSP1_(19)-specific recombinant mouse IgG2a) (antibody, V domains shown, VH of C1 (anti-PfMSP1_19), as the VH of m7; mouse IgG2a heavy-chain constant region, amplified from genomic DNA; VL of C1, as the VL of m7; mouse kappa light chain constant region, amplified from BALB/c genomic DNA; Plasmids pVH-C1-mIgG2a and pVL-C1-mouse kappa; also called mIgG2a-C1; source: CHO-K1, stably transfected; culture supernatant, and purified (protein G-Sepharose)) VH: EVQLVQSGPEVKKPGASVKVSCKTSGYSFTSYDINWVRQAPGQGLEWMGRISPYNGKTDYTQTLRGRVTMSTDTSTTTVYLELRSLKSDDTAVYYCAREGVWFAELLSWGEGTLVTVSS VL: DIVMTQTPGTLSLSPGERATLSCRASQSVSGNYLAWYQQKPGQAPRLLIHGSSDRAAGTPDRFSGRGSGTDFTLTISRLEPEDFAVYYCQQYCSSPFTFGPGTKVEIK	Kd	30.1
mouse IgG1-C1 (PfMSP1_(19)-specific recombinant mouse IgG1) (antibody, V domains shown, VH of C1 (anti-PfMSP1_19), as the VH of m7; mouse IgG1 heavy-chain constant region, amplified from BALB/c genomic DNA; VL of C1, as the VL of m7; mouse kappa light chain constant region, amplified from BALB/c genomic DNA; Plasmids pVH-C1-mIgG1 and pVL-C1-mouse kappa; also called mIgG1-C1; murine IgG1-C1; source: HEK-293T, stably transfected; culture supernatant, and purified (protein G-Sepharose)) VH: EVQLVQSGPEVKKPGASVKVSCKTSGYSFTSYDINWVRQAPGQGLEWMGRISPYNGKTDYTQTLRGRVTMSTDTSTTTVYLELRSLKSDDTAVYYCAREGVWFAELLSWGEGTLVTVSS VL: DIVMTQTPGTLSLSPGERATLSCRASQSVSGNYLAWYQQKPGQAPRLLIHGSSDRAAGTPDRFSGRGSGTDFTLTISRLEPEDFAVYYCQQYCSSPFTFGPGTKVEIK	Kd	23
mouse IgG2b-C1 (PfMSP1_(19)-specific recombinant mouse IgG2b) (antibody, V domains shown, VH of C1 (anti-PfMSP1_19), as the VH of m7; mouse IgG2b heavy-chain constant region, amplified from genomic DNA; VL of C1, as the VL of m7; mouse kappa light chain constant region, amplified from BALB/c genomic DNA; Plasmids pVH-C1-mIgG2b and pVL-C1-mouse kappa; also called mIgG2b-C1; source: CHO-K1, stably transfected; culture supernatant, and purified (protein G-Sepharose)) VH: EVQLVQSGPEVKKPGASVKVSCKTSGYSFTSYDINWVRQAPGQGLEWMGRISPYNGKTDYTQTLRGRVTMSTDTSTTTVYLELRSLKSDDTAVYYCAREGVWFAELLSWGEGTLVTVSS VL: DIVMTQTPGTLSLSPGERATLSCRASQSVSGNYLAWYQQKPGQAPRLLIHGSSDRAAGTPDRFSGRGSGTDFTLTISRLEPEDFAVYYCQQYCSSPFTFGPGTKVEIK	Kd	84.1

Exercise: Can you look up the measured Kd of mouse IgG3-C1 (PfMSP1_(19)-specific recombinant mouse IgG3) (antibody, V domains shown, VH of C1 (anti-PfMSP1_19), as the VH of m7; mouse IgG3 heavy-chain constant region, amplified from genomic DNA; VL of C1, as the VL of m7; mouse kappa light chain constant region, amplified from BALB/c genomic DNA; Plasmids pVH-C1-mIgG3 and pVL-C1-mouse kappa; also called mIgG3-C1; source: CHO-K1, stably transfected; culture supernatant, and purified (protein G-Sepharose)) VH: EVQLVQSGPEVKKPGASVKVSCKTSGYSFTSYDINWVRQAPGQGLEWMGRISPYNGKTDYTQTLRGRVTMSTDTSTTTVYLELRSLKSDDTAVYYCAREGVWFAELLSWGEGTLVTVSS VL: DIVMTQTPGTLSLSPGERATLSCRASQSVSGNYLAWYQQKPGQAPRLLIHGSSDRAAGTPDRFSGRGSGTDFTLTISRLEPEDFAVYYCQQYCSSPFTFGPGTKVEIK for me?
Key: 31.1
